Biological target: purified class A, C and D enzymes (UniProt Q9F663)
Construct: rows headed: Ki (KPC-2, NCF); other: purified KPC-2; nitrocefin reporter substrate
Details: read-out: Ki (KPC-2, NCF); purified KPC-2; nitrocefin reporter substrate
pKi: −log10 of the molar value.

SMILES STRING | pKi
C[C@]1(Cn2ccnn2)[C@H](C(=O)O)N2C(=O)C[C@H]2S1(=O)=O | < 6.00
COc1ccc2c(c1C(=O)O)OB(O)[C@@H](Sc1nnc(SCCN3CCOCC3)s1)C2 | > 7.00
CC(=N)S[C@H]1Cc2cccc(C(=O)O)c2OB1O | 6.00 to 7.00
Nc1nnc(S[C@H]2Cc3c(F)cc(F)c(C(=O)O)c3OB2O)s1 | 6.00 to 7.00
Nc1nnc(CCS[C@H]2Cc3ccc(F)c(C(=O)O)c3OB2O)s1 | > 7.00
NC(=O)CS[C@H]1Cc2ccc(F)c(C(=O)O)c2OB1O | > 7.00
COc1ccc2c(c1C(=O)O)OB(O)[C@@H](Sc1nnc(SCC(=N)N)s1)C2 | 6.00 to 7.00
COc1ccc2c(c1C(=O)O)OB(O)[C@@H](Sc1cncs1)C2 | > 7.00
Nc1nnc(S[C@H]2Cc3cc4nc[nH]c4c(C(=O)O)c3OB2O)s1 | 6.00 to 7.00
COc1ccc2c(c1C(=O)O)OB(O)[C@@H](Sc1nccs1)C2 | 6.00 to 7.00
COc1ccc2c(c1C(=O)O)OB(O)[C@@H](Sc1nnc(NC3CNC3)s1)C2 | 6.00 to 7.00
Nc1nnc(S[C@H]2Cc3ccc(OCC(F)F)c(C(=O)O)c3OB2O)s1 | > 7.00
Nc1nnc(S[C@H]2Cc3cc(F)c(F)c(C(=O)O)c3OB2O)s1 | > 7.00
O=C(O)c1c(F)ccc2c1OB(O)[C@@H](Sc1nnc(C(F)(F)F)s1)C2 | 6.00 to 7.00
O=C(O)c1c(OCC(F)F)ccc2c1OB(O)[C@@H](Sc1nncs1)C2 | 6.00 to 7.00
COc1ccc2c(c1C(=O)O)OB(O)[C@@H](Sc1nnc(SC3CCNCC3)s1)C2 | > 7.00
COc1ccc2c(c1C(=O)O)OB(O)[C@@H](Sc1nnc(CN3CCNCC3)n1N)C2 | 6.00 to 7.00
NC(=O)CCS[C@H]1Cc2cccc(C(=O)O)c2OB1O | > 7.00
COc1ccc2c(c1C(=O)O)OB(O)[C@@H](Sc1nncn1C)C2 | 6.00 to 7.00
COc1ccc2c(c1C(=O)O)OB(O)[C@@H](Sc1nnc(NCCN3CCNCC3)s1)C2 | 6.00 to 7.00
Nc1nnc(S[C@H]2Cc3ccc(OC(F)F)c(C(=O)O)c3OB2O)s1 | 6.00 to 7.00
COc1cc(OC)c(C(=O)O)c2c1C[C@H](Sc1nnc(N)s1)B(O)O2 | > 7.00
COc1ccc2c(c1C(=O)O)OB(O)[C@@H](Sc1ncn(CCCC(=O)O)n1)C2 | > 7.00
Nc1nnc(S[C@H]2Cc3ccc(F)c(C(=O)O)c3OB2O)s1 | > 7.00
NC(=O)c1cnc(S[C@H]2Cc3ccc(F)c(C(=O)O)c3OB2O)s1 | > 7.00
O=C(O)c1cccc2c1OB(O)[C@@H](Sc1c[nH]nn1)C2 | 6.00 to 7.00
CCOc1ccc2c(c1C(=O)O)OB(O)[C@@H](Sc1nnc(N)s1)C2 | 6.00 to 7.00
COc1ccc2c(c1C(=O)O)OB(O)[C@@H](Sc1nnc(N(CCN)CCN)s1)C2 | 6.00 to 7.00
O=C(O)c1c(F)ccc2c1OB(O)[C@@H](Sc1cnns1)C2 | 6.00 to 7.00
CS(=O)(=O)Nc1ccc2c(c1C(=O)O)OB(O)[C@@H](Sc1nnc(N)s1)C2 | 6.00 to 7.00
O=C(O)c1cccc2c1OB(O)[C@@H](Sc1nncs1)C2 | 6.00 to 7.00
Nc1nnc(S[C@H]2Cc3c(F)c(F)c(F)c(C(=O)O)c3OB2O)s1 | < 6.00
COc1ccc2c(c1C(=O)O)OB(O)[C@@H](Sc1nncs1)C2 | > 7.00
COc1ccc2c(c1C(=O)O)OB(O)[C@@H](Sc1nnc(CN)n1N)C2 | 6.00 to 7.00
COc1c(F)cc2c(c1C(=O)O)OB(O)[C@@H](Sc1nnc(N)s1)C2 | 6.00 to 7.00
CSc1ccc2c(c1C(=O)O)OB(O)[C@@H](Sc1nncn1N)C2 | 6.00 to 7.00

FYI, the data here is from patent US10206937B2.
